Quick reference for inhibition at 10 µM among some molecules
TESTED TARGET: Recombinant KAT6A/MOZ (488-778) protein (Homo sapiens (Human), UniProt Q92794)
Sequence (Q92794 488-778): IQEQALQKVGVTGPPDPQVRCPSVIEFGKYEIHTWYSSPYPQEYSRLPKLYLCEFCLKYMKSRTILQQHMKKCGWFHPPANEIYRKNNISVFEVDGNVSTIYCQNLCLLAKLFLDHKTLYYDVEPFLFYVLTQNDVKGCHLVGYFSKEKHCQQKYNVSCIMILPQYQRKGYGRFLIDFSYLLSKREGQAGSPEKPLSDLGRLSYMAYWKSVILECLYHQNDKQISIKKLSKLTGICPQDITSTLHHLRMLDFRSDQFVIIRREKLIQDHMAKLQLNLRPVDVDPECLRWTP
EXPERIMENTAL PROTOCOL: KAT6A AlphaLISA Inhibition Screening Assay
Format: biochemical
MEASUREMENT CONTEXT: read-out: Average Kat6A % inhibition @ 10 μM; 10 μM test compound
Number only, in %; omit the unit.

Some solved cases for reference:
molecule="CCc1ccc(OCc2ccccc2)c(S(=O)(=O)Nc2noc3cc(Cn4cc(CNC(=O)OC)cn4)cc(OC)c23)c1 [Syn. Ex. 93]" reported_result=98
molecule="C#CCOc1ccc(CC)cc1S(=O)(=O)Nc1noc2cc(Cn3cc(CNC(=O)OC)cn3)cc(OC)c12 [Syn. Ex. 128]" reported_result=100
molecule="CCc1ccc(OCC#N)c(S(=O)(=O)Nc2noc3cc(Cn4cc(CNC(=O)OC)cn4)cc(OC)c23)c1 [Syn. Ex. 44]" reported_result=100
molecule="COC(=O)NCc1cnn(Cc2cc(OC)c3c(NS(=O)(=O)c4cc(C)ccc4OC)noc3c2)c1 [Syn. Ex. 88]" reported_result=98
molecule="CCc1ccc(OCc2ccc(F)cc2)c(S(=O)(=O)Nc2noc3cc(Cn4cc(CNC(=O)OC)cn4)cc(OC)c23)c1 [Syn. Ex. 122]" reported_result=100
molecule="CCc1ccc(OCc2ncc[nH]2)c(S(=O)(=O)Nc2noc3cc(Cn4cc(CNC(=O)OC)cn4)cc(OC)c23)c1 [Syn. Ex. 116]" reported_result=100

What value of inhibition at 10 µM has been reported for the following molecule? C#CC(=O)N1CCc2cnn(Cc3cc(OC)c4c(NS(=O)(=O)c5cc(CC)ccc5OC)noc4c3)c2CC1 [Syn. Ex. 9]
100
